- TARGET_SYSTEM: human CXCL13 (Homo sapiens, UniProt O43927)
- Sequence (O43927 23-109): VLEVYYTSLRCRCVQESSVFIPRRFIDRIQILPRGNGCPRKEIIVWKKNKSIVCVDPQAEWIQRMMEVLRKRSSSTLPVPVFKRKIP
- EXPERIMENTAL_DETAILS: SPR
MEASUREMENT_KIND: kon (M⁻¹ s⁻¹)
I only need the number, in M⁻¹ s⁻¹, no unit after it.

Here's what some known entries look like.
BINDER	UNITS_SYMBOL	MEASUREMENT
anti-CXCL13 C04 scFv-Fc fusion protein (Fc fusion, human) VH: QVQLVQSGAEVKKPGSSVKVSCKASGGTFSSYAISWVRQAPGQGLEWMGGIIPIFGTANYAQKFQGRVTITADESTSTAYMELSSLRSEDTAVYYCAREPDYYDSSGYYPIDAFDIWGQGTTVTVSS VL: QSALTQPASVSASPGQSITISCTGTSSDVGAYDWVSWYQQHPGKAPKLLIFDVNNRPSGVSHRFSGSKSGNTASLTISGLQAEDEADYYCSSAGIISVYVFGTGTKVTVL	M⁻¹ s⁻¹	6.22e+06
anti-CXCL13 A01 scFv-Fc fusion protein (Fc fusion, human) VH: QVQLVQSGAEVKKPGSSVKVSCKASGGTFSSYAISWVRQAPGQGLEWMGGIIPIFGTANYAQKFQGRVTITADESTSTAYMELSSLRSEDTAVYYCAREPDYYDSSGYYPIDAFDIWGQGTTVTVSS VL: QSALTQPASVSASPGQSITISCTGTSSDVGAYDWVSWYQQHPGKAPKLLIFDVNNRPSGVSHRFSGSKSGNTASLTISGLQAEDEADYYCASTTLFDTYVFGTGTKVTVL	M⁻¹ s⁻¹	9.28e+06

Could you now look at the following binder, please?
Exam item: Sample anti-CXCL13 C07 scFv-Fc fusion protein (Fc fusion, human) VH: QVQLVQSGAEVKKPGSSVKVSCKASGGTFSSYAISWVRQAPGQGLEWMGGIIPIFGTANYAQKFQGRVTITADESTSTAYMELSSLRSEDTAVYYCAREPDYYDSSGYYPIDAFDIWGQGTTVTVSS VL: QSALTQPASVSASPGQSITISCTGTSSDVGAYDWVSWYQQHPGKAPKLLIFDVNNRPSGVSHRFSGSKSGNTASLTISGLQAEDEADYYCSSPTFTEPYVFGTGTKVTVL — what was its kon?
Marked response: 8.03e+06

Where do these numbers come from? They come from paper PMC3896602.
